List of protein stability index values.
B1: APBB1IP (parent)
chain: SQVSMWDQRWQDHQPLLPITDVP

Variants of: B1
Assay: protein stability index of a GFP-peptide fusion (GPS, HEK-293T) (PSI 1-6); higher = more stable;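 further: lentivirally expressed fusions sorted by FACS into six bins by GFP to DsRed ratio, PSI derived from sequencing read proportions per bin multiplied by bin number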
Conditions: c terminus: native
Give a plain numeric answer without units written out.

// known answers, use as guide
S4A 2.84
L17M 2.17
S1V 2.85
Q14W 2.23

Sure, the documented protein stability index for `Q8F` is 1.73

Sure, the documented protein stability index for `W6A` is 3.27

Sure, the documented protein stability index for `V3Y` is 2.27

Sure, the documented protein stability index for `Q14C` is 3.58

Sure, the documented protein stability index for `V3L` is 2.04

Sure, the documented protein stability index for `T20I` is 1.79

Sure, the documented protein stability index for `P15Q` is 3.25

Every entry's value here was drawn from the supplement of paper PMC10567573.
